Just for reference, patent US11759455B2 is where these values come from.

- testedOn: human GluN1/GluN2B NMDA receptors (Homo sapiens, UniProt Q13224)
- Construct: expressed in transfected cells
- Sequence (Q13224 27-1484, other chains not shown): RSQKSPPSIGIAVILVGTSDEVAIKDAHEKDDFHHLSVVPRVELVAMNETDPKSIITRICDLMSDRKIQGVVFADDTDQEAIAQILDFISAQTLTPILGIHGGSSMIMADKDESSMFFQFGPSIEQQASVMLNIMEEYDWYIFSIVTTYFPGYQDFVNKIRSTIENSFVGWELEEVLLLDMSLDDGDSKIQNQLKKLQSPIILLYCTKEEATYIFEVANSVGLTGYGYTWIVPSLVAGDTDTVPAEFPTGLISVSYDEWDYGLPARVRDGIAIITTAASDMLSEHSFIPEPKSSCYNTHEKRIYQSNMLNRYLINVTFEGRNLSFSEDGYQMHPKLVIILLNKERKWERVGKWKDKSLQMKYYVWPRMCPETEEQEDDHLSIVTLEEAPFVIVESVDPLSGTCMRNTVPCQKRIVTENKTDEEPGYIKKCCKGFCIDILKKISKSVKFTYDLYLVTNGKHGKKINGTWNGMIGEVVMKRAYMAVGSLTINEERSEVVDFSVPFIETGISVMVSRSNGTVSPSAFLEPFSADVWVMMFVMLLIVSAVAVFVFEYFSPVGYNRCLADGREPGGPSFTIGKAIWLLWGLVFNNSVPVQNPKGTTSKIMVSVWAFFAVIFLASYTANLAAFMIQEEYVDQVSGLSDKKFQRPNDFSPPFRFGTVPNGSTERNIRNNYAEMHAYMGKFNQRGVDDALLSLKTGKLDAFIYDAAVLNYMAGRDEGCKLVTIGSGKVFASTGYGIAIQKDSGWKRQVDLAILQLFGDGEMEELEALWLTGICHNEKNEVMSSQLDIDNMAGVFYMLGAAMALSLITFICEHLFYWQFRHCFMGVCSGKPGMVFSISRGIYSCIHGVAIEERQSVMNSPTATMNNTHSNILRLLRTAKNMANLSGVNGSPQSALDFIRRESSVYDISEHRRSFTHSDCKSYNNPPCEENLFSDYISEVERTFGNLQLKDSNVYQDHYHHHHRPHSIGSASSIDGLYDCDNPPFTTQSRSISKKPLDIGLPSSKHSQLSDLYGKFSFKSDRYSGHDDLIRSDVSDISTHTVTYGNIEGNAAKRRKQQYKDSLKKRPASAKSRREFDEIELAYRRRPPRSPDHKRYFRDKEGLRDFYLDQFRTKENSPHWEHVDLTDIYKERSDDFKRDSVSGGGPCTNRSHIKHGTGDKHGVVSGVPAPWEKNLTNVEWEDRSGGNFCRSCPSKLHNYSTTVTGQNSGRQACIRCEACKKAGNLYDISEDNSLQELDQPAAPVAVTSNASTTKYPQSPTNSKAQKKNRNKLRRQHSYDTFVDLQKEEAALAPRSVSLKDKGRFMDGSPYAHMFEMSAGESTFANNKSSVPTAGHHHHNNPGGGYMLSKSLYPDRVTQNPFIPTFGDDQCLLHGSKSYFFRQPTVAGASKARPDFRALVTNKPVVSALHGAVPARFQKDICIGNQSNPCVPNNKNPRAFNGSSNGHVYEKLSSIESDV
- testSummary: Cell-based calcium flux (FLIPR) assay on cloned human NR1/NR2B ion channels expressed in mammalian cells (standard and HTS buffer variants);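 further: stable Tet-On inducible cell line, Ca2+ influx triggered by glutamate at about EC40 plus 10 µM glycine, fluorescent dye read-out over 5 min, normalized to control wells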
- assayContext: standard assay buffer (0.5 mM MgCl2 dye loading; 137 mM NaCl, 4 mM KCl assay buffer), human GluN1/GluN2B cells, read-out: NR2B IC50 (μM) standard assay
assayMetric: IC50 (µM)

Previously resolved entries follow.
recordSmiles: Cc1cc(F)ccc1-c1cnc2[nH]c(=O)n(CCN3CCCC3)c2c1
testedOn: human GluN1/GluN2B NMDA receptors (Homo sapiens, UniProt Q13224)
observedResult: 0.502

recordSmiles: Cn1c(=O)n(CC(=O)NC2(C)CC(F)(F)C2)c2cc(-c3cccc(C(F)(F)F)c3)cnc21
testedOn: human GluN1/GluN2B NMDA receptors (Homo sapiens, UniProt Q13224)
observedResult: 5.01

recordSmiles: CN1CCN(C(=O)Cn2c(=O)[nH]c3ncc(-c4cccc(C(F)(F)F)c4)cc32)CC1
testedOn: human GluN1/GluN2B NMDA receptors (Homo sapiens, UniProt Q13224)
observedResult: 0.587

P. Cn1c(=O)n(CC(=O)N2CC(F)C2)c2cc(-c3ccc(C(F)F)s3)cnc21
Q. Cn1c(=O)n(Cc2cccnn2)c2cc(-c3ccc(C(F)(F)F)s3)cnc21
Among P and Q , whose measured IC50 is the smaller figure? // respond with label for picked entry P
(P: 0.01 µM, Q: 0.03 µM)

A. Cc1ccncc1Cn1c(=O)[nH]c2ncc(-c3cccc(C(F)(F)F)c3)cc21
B. Cn1ccc(Cn2c(=O)[nH]c3ncc(-c4ccc(F)c(F)c4)cc32)n1
Higher IC50 between A and B ? // respond with label for picked entry B

a. O=c1ccc(Cn2c(=O)[nH]c3ncc(-c4cccc(C(F)(F)F)c4)cc32)c[nH]1
b. O=c1[nH]c2ncc(-c3cccc(C(F)(F)F)c3)cc2n1CCN1CC(C(F)(F)F)C1
c. Cc1cncc(Cn2c(=O)[nH]c3ncc(-c4ccc(F)c(F)c4)cc32)c1
d. O=C(Cn1c(=O)[nH]c2ncc(-c3cccc(C(F)(F)F)c3)cc21)NC1CCC1
Write the entries in order, lowest recorded IC50 first. List the labels according to the requested ordering. c, d, a, b
